Target: T1, TauC3 (C-terminally truncated tau fragment ending at aspartate 421 of htau40) (human, UniProt P10636 1-738)
T1 construct: Generated and purified by Genscript; also called Human TauC3; recombinant TauC3 protein
T1 sequence (P10636 other isoform, or with tags, fused parts or gaps): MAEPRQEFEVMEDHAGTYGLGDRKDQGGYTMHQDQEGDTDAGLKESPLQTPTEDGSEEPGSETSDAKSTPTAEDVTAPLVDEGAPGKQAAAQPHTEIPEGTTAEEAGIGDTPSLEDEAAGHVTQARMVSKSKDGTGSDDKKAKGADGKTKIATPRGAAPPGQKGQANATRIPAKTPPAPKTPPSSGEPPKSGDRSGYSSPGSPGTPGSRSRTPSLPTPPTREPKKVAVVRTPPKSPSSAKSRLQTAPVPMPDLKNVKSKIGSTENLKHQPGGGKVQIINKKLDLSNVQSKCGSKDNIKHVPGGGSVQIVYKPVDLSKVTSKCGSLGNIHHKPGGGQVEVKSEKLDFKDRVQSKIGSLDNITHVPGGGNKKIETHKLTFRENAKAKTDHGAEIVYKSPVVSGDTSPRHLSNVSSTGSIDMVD
Assay: Biacore kinetics, TauC3 amine-coupled on CM5, antibody series, 1:1 global fit
Excerpt: To determine the affinity of the binding interactions, a biacore kinetic assay was developed which involved immobilizing TauC3 on a CM5 chip via amine coupling and injecting a concentration series of the respective antibody over it.
pKd: −log10 of the molar value.

{"columns": ["binder", "pKd"],
 "data": [
  ["Tau01 HMKE HuG4k (antibody, V domains shown, human IgG4 kappa (HuG4K); also called KMKE) VH: LVQLVESGGGLVQPGGSLKLSCAASGFTFNTYAMNWVRQASGKGLEWVARIRSKSNNYATYYAASVKGRFTISRDDSKSMAYLQMDSLKTEDTAVYYCVGGGDFWGQGTLVTVSS VL: DIQMTQSPSSLSASVGDRVTITCRASQEISVYLGWFQQKPGKAPKRLIYGAFKLQSGVPSRFSGSRSGTEFTLTISSLQPEDFATYYCLQYVRYPWTFGGGTKVEIK", 10.70]
]}

Measured values drawn from patent US20220064272A1 for this set.
